B1: TPR 5TU (parent)
chain: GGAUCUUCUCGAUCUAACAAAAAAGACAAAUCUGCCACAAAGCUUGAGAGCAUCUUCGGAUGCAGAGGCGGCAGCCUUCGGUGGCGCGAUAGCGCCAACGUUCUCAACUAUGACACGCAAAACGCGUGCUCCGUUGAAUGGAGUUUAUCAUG

Variants of: B1
Experiment: polymerase ribozyme fitness, log enrichment relative to wild type (log ratio); higher = more active; in vitro selection for triplet polymerase activity
This sample holds only a part of the variants without activity.
quantity_name: polymerase ribozyme fitness (log ratio)

{"variant_string": "C5A C57A A119U A137G U146G", "polymerase ribozyme fitness (log ratio)": -2.37}

Query :: Give polymerase ribozyme fitness (log ratio) for the following variant: A16U G46C G50C G67A G74C C118U U130A
Result :: -4.05

Query :: Output measured polymerase ribozyme fitness (log ratio) for this item: C57A C85A A107G
Result :: ≤ -4.2

Query :: Identify measured polymerase ribozyme fitness (log ratio) corresponding to C38U G58A G86A C93U C96A C131A
Result :: -2.97

Query :: For C27U G58A G59C C99U U102G A120C C125U , write its polymerase ribozyme fitness (log ratio).
Result :: ≤ -4.2

Query :: Supply polymerase ribozyme fitness (log ratio) value. Item: A26G G83A G88A G94U C149G
Result :: -4.19

Query :: Entry C38U C95G needs its polymerase ribozyme fitness (log ratio) filled in; supply it.
Result :: -1.3

Query :: Determine its reported polymerase ribozyme fitness (log ratio): A66C C85A
Result :: ≤ -4.2

Query :: Using the record for A52G C108G , state its measured polymerase ribozyme fitness (log ratio).
Result :: ≤ -4.2

Query :: // Input: A39G A47C C72A C103G C116U G128A . Output its polymerase ribozyme fitness (log ratio) only.
Result :: ≤ -4.2

Query :: Quick one: give measured polymerase ribozyme fitness (log ratio) for U13G U33G C54U
Result :: ≤ -4.2

Measured values drawn from the RNAGym collection of RNA variant scans (doi:10.1073/pnas.2313332121) for this set.
